- System: p-ERK in AsPC-1 cells (KRAS G12D mutation)
- METHOD DESCRIPTION: Cell p-ERK assay (HTRF) in AsPC-1 cells
- Assay type: cell-based, human
- DETAILS: Homo sapiens, ASPC1, 3 h, AsPC-1 cells, 3 h compound incubation, HTRF p-ERK T202/Y204; read-out: AsPC-1 p-ERK IC50
For each entry below, report its pIC50 value.
// returns pIC50 (minus log10 of molar concentration), number only

// recorded pIC50 for CCn1c(-c2cc(N3CCN4CC5(CC5)OC[C@@H]4C3)cnc2[C@H](C)OC)c2c3cc(ccc31)-c1csc(n1)C[C@H](NC(=O)[C@H]1[C@H](C)[C@@H]1C)C(=O)N1CCC[C@H](N1)C(=O)OCC1(CCC1)C2 : 7.16

// recorded pIC50 for CCn1c(-c2cc(C#CCN3CCCOCC3)c[n+]([O-])c2[C@H](C)OC)c2c3cc(ccc31)-c1csc(n1)C[C@H](NC(=O)[C@H]1[C@H](C)[C@@H]1C)C(=O)N1CCC[C@H](N1)C(=O)OCC(C)(C)C2 : 9.60

// recorded pIC50 for CCn1c(-c2cc(C#CCN3CCCOCC3)cnc2[C@H](C)OC)c2c3cc(ccc31)-c1csc(n1)C[C@H](NC(=O)[C@H]1[C@H](C)[C@@H]1C)C(=O)N1CCC[C@H](N1)C(=O)OCC(C)(C)C2 (single isomer, unassigned) : 9.80

// recorded pIC50 for CO[C@@H](C)c1ncc(OCCN2CCOC3(CC3)C2)cc1-c1c2c3cc(ccc3n1CC(F)(F)F)-c1csc(n1)C[C@H](NC(=O)[C@H]1[C@H](C)[C@@H]1C)C(=O)N1CCC[C@H](N1)C(=O)OCC1(CC1)C2 : 7.79
